Reference source: ChEMBL document CHEMBL6134891

Target or system Glutamate receptor ionotropic, NMDA 2D (Rattus norvegicus, UniProt P35439+Q62645); recorded quantity EC50.
REPORTED ENDPOINT: EC50 (µM)

// known answers, use as guide
| COMPOUND | EC50 (µM) |
| --- | --- |
| Cc1sc2ncn(CC(=O)N3CC(C)(F)C3)c(=O)c2c1-c1ccc(Cl)c(F)c1 | 5.6 |
| Cc1sc2ncn(CC(=O)N3CCC(C)(F)C3)c(=O)c2c1-c1cccc(Br)c1 (centres undefined) | 13 |
| Cc1sc2ncn(CC(=O)N3CC[C@H](F)C3)c(=O)c2c1-c1cccc(Br)c1 | 25 |
| Cc1sc2ncn(CC(=O)N3CCC(C)C3)c(=O)c2c1-c1cccc(Br)c1 (centres undefined) | 13 |
| Cc1sc2ncn(CC(=O)N3CC(C)(C)C3)c(=O)c2c1-c1cccc(Br)c1 | 11 |

A = CCC1(F)CN(C(=O)Cn2cnc3sc(C)c(-c4cccc(Br)c4)c3c2=O)C1
B = Cc1sc2ncn(CC(=O)N3CC(C)(F)C3)c(=O)c2c1-c1ccc(Cl)c(Cl)c1
C = Cc1sc2ncn(CC(=O)N3CC(C)(F)C3)c(=O)c2c1-c1cc(F)cc(Cl)c1
D = Cc1sc2ncn(CC(=O)N3CC(C)(F)C3)c(=O)c2c1-c1ccc2c(c1)OC(F)(F)O2
Problem: Sort entries by EC50 from minimum to maximum value. Return value: ordered labels per request.
Solution: B, A, C, D
(B: 1 µM, A: 3.6 µM, C: 7.4 µM, D: 13 µM)

---

Here's a batch of molecules along with measured EC50 for Glutamate receptor ionotropic, NMDA 2D (Rattus norvegicus, UniProt P35439+Q62645).
REPORTED ENDPOINT: EC50 (µM)

a = Cc1sc2ncn(CC(=O)N3CC(C)(F)C3)c(=O)c2c1-c1ccc(F)c(OC(C)C)c1
b = Cc1sc2ncn(CC(=O)N3CC(C)(F)C3)c(=O)c2c1-c1cccc(Br)c1
c = CCCC1(F)CN(C(=O)Cn2cnc3sc(C)c(-c4cccc(Br)c4)c3c2=O)C1
Problem: Ascending by EC50, please. # the answer lists labels in the order requested
Solution: b, a, c

---

- ASSAY SYSTEM: Glutamate receptor ionotropic, NMDA 2B (Rattus norvegicus, UniProt P35439+Q00960)
- Sequence (Q00960 whole entry, one chain of several): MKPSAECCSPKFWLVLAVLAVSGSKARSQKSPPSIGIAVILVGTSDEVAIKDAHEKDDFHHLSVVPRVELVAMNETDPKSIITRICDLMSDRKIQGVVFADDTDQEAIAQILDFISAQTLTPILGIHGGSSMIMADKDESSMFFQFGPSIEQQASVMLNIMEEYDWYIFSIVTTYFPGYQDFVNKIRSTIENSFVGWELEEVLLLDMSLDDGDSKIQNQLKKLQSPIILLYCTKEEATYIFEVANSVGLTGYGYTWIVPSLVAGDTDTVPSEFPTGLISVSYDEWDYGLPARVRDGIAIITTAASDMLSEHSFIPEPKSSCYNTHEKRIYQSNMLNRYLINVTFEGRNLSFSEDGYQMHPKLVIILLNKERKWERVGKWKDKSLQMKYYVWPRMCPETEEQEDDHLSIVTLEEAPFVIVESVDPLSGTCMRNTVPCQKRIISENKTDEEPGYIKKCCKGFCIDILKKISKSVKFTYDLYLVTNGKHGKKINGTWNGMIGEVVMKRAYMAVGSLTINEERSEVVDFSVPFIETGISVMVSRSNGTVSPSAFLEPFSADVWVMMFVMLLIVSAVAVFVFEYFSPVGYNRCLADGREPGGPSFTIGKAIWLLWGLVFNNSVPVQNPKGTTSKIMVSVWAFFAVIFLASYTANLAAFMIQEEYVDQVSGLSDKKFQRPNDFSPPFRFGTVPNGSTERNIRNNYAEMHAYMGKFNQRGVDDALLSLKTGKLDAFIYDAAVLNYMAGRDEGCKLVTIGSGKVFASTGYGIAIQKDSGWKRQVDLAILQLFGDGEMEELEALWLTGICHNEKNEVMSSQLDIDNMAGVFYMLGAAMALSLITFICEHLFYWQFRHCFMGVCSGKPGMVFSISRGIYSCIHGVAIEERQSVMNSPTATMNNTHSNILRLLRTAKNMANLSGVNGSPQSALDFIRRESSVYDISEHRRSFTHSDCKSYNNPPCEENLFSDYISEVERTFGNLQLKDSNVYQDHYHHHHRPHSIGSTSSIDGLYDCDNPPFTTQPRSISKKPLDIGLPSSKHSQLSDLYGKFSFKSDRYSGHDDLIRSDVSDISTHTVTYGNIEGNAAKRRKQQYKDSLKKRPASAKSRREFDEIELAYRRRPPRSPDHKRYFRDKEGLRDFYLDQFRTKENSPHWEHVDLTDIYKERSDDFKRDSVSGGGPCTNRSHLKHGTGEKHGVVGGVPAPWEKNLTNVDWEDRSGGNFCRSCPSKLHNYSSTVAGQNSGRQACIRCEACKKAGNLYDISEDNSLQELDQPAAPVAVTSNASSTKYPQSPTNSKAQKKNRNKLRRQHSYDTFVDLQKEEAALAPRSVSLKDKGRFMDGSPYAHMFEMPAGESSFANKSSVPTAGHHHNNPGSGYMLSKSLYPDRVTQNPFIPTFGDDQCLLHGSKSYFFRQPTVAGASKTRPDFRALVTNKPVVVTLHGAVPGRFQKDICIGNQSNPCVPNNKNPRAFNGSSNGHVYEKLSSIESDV
REPORTED ENDPOINT: pEC50
Kindly note that pEC50 refers to -log10 of the concentration in mol/L and answer with the value alone.

Problem: What value of pEC50 has been recorded for this entry: `Cc1sc2ncn(CC(=O)N3CCCC3)c(=O)c2c1-c1cccc(Br)c1`
Solution: 5.00

---

- ASSAY SYSTEM: Glutamate receptor ionotropic, NMDA 2A (Homo sapiens, UniProt Q05586+Q12879)
- Sequence (Q12879 whole entry, one chain of several): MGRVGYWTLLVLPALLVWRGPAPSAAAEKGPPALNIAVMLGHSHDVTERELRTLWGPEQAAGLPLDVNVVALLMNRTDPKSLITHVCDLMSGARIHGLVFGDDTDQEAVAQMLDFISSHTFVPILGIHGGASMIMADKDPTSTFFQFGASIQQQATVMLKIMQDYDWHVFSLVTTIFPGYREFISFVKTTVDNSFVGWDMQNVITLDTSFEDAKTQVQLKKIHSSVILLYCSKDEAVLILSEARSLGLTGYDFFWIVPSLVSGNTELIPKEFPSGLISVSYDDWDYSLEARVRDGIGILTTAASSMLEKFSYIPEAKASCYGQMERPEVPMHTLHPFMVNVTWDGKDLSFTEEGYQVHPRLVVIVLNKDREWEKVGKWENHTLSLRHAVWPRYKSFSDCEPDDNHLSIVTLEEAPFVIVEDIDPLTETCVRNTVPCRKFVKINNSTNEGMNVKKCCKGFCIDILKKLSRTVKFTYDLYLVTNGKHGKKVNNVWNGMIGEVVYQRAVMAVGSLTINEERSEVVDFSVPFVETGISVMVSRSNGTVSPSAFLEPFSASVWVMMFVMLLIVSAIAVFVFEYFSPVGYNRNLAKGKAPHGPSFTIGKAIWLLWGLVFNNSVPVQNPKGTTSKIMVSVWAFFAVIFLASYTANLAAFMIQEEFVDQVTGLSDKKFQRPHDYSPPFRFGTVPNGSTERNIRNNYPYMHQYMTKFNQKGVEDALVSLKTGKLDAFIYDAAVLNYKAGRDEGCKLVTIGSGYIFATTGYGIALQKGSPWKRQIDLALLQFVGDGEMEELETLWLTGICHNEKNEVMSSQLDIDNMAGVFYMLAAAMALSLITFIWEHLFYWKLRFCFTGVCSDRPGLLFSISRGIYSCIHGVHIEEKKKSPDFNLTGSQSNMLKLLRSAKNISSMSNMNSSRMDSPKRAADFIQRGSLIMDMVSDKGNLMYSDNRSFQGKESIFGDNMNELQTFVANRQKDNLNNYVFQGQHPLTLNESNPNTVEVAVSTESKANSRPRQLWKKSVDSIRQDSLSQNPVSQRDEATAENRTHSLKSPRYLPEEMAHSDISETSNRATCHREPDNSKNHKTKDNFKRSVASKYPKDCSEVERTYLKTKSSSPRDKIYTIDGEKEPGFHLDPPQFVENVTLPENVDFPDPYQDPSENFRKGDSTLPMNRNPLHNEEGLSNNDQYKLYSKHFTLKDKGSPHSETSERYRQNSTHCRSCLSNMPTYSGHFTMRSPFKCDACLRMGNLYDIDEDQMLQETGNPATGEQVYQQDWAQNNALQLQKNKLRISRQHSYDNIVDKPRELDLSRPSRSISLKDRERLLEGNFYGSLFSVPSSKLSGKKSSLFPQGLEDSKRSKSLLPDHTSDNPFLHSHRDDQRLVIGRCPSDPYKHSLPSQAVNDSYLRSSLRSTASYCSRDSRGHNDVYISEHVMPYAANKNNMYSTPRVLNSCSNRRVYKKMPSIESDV
- ASSAY PROCEDURE: Positive allosteric modulation of GluN2A receptor (unknown origin) expressed in Doxycycline-inducible HEK293 cells by calcium influx assay
REPORTED ENDPOINT: EC50 (µM)
All answers are understood in µM, so give the number only.

Problem: Quick one: EC50 of `CCCc1nc2[nH]c(C)c(NS(=O)(=O)c3ccc(C4CCCCC4)cc3)c(=O)n2n1` ?
Solution: 3

---

- ASSAY SYSTEM: Glutamate receptor ionotropic, NMDA 2C (Homo sapiens, UniProt Q05586+Q14957)
- Sequence (Q14957 whole entry, one chain of several): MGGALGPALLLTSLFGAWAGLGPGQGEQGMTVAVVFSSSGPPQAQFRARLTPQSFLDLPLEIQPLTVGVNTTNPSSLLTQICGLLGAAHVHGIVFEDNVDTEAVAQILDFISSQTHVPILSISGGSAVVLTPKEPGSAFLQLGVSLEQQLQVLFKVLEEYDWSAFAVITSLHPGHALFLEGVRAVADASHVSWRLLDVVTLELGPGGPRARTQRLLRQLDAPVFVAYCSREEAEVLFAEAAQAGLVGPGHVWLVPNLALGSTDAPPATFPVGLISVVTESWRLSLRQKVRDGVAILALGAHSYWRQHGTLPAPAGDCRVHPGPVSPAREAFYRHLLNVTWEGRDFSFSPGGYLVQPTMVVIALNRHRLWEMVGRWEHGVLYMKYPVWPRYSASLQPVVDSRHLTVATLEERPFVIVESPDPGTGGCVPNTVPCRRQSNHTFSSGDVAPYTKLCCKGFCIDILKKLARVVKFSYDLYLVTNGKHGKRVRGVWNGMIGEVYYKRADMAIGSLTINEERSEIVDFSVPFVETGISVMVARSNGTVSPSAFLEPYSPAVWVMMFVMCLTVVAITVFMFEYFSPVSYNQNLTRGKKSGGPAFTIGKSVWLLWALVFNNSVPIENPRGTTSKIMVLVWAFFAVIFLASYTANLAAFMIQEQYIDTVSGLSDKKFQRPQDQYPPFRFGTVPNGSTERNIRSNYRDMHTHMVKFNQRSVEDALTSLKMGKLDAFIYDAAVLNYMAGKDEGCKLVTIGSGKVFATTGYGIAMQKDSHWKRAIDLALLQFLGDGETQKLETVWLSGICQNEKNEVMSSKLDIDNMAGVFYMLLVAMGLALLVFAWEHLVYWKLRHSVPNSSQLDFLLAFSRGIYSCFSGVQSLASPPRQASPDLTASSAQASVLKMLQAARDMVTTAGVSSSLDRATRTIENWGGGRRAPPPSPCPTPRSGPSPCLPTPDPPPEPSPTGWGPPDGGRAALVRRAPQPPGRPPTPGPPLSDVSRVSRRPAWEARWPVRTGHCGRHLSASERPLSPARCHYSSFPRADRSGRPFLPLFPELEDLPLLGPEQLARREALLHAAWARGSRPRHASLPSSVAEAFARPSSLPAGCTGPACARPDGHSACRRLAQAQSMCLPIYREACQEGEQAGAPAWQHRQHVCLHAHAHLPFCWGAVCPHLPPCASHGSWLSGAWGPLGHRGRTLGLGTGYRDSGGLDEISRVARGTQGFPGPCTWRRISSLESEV
- ASSAY PROCEDURE: Positive allosteric modulation of GluN2C receptor (unknown origin) expressed in Doxycycline-inducible HEK293 cells by calcium influx assay
REPORTED ENDPOINT: EC50 (µM)
Report the value in µM with no unit label.

Problem: Endpoint output: EC50 of `CCCc1nc2[nH]c(C)c(NS(=O)(=O)c3ccc(C4CCCCC4)cc3)c(=O)n2n1` . Value?
Solution: 3
